Hello, the source for this data is paper PMC3438196, in case you need it.

The reader will find reported percent of parent values listed item by item below.
molecular target: codon optimized Vif SLQ144-146AAA MAPPIT prey (pMG2-VifoptSLQ), P12504; assay: MAPPIT; conditions: chain shown with the change

binder	percent of parent
Apobec3G-GFP MAPPIT bait (pCEL-Apobec3G-GFP), Q9HC16 R30L (protein) MKPHFRNTVERMYRDTFSYNFYNRPILSRLNTVWLCYEVKTKGPSRPPLDAKIFRGQVYSELKYHPEMRFFHWFSKWRKLHRDQEYEVTWYISWSPCTKCTRDMATFLAEDPKVTLTIFVARLYYFWDPDYQEALRSLCQKRDGPRATMKIMNYDEFQHCWSKFVYSQRELFEPWNNLPKYYILLHIMLGEILRHSMDPPTFTFNFNNEPWVRGRHETYLCYEVERMHNDTWVLLNQRRGFLCNQAPHKHGFLEGRHAELCFLDVIPFWKLDLDQDYRVTCFTSWSPCFSCAQEMAKFISKNKHVSLCIFTARIYDDQGRCQEGLRTLAEAGAKISIMTYSEFKHCWDTFVDHQGCPFQPWDGLDEHSQDLSGRLRAILQNQEN	21 % of WT

// switching to the query binder
Query block: Give the measured percent of parent for Apobec3G-GFP MAPPIT bait (pCEL-Apobec3G-GFP), Q9HC16 V265M (protein) MKPHFRNTVERMYRDTFSYNFYNRPILSRRNTVWLCYEVKTKGPSRPPLDAKIFRGQVYSELKYHPEMRFFHWFSKWRKLHRDQEYEVTWYISWSPCTKCTRDMATFLAEDPKVTLTIFVARLYYFWDPDYQEALRSLCQKRDGPRATMKIMNYDEFQHCWSKFVYSQRELFEPWNNLPKYYILLHIMLGEILRHSMDPPTFTFNFNNEPWVRGRHETYLCYEVERMHNDTWVLLNQRRGFLCNQAPHKHGFLEGRHAELCFLDMIPFWKLDLDQDYRVTCFTSWSPCFSCAQEMAKFISKNKHVSLCIFTARIYDDQGRCQEGLRTLAEAGAKISIMTYSEFKHCWDTFVDHQGCPFQPWDGLDEHSQDLSGRLRAILQNQEN
Result block: 92 % of WT
